The measured values listed here are drawn from paper PMC5378893.

Molecular target: T1, extracellular domain (ECD) of human epidermal growth factor receptor 2 (HER2) (Homo sapiens, UniProt P04626)
T1 construct: human epidermal growth factor receptor 2 (HER2), extracellular domain; also called HER2/ECD
Assay: SPR; BIAcore T200; HER2/ECD immobilised on a CM5 chip by amine coupling to 1000 RU; IgG flowed in PBST (0.05% Tween 20) at 30 uL/min; regeneration 10 mM glycine pH 1.5; global fit to a 1:1 binding model
Conditions: both partners purified
PARAMETER MEASURED: pKd
The value called pKd is obtained by taking minus log10 of the concentration in mol/L.

| BINDER | OBSERVED |
| --- | --- |
| GH2-54 IgG (antibody, V domains shown, source: HEK293-F, transient transfection, purified (Protein A, Superdex 200)) VH: EVQLVESGGGLVQPGGSLRLSCAASGFTISDGSIHWVRQAPGKGLEWVAFIGPYWGFTYYADSVKGRFTISADTSKNTAYLQMNSLRAEDTAVYYCARFVNWVHYGMDYWGQGTLVTVSS VL: DIQMTQSPSSLSASVGDRVTITCRASQDVNDNVAWYQQKPGKAPKLLIFGSSSLYSGVPSRFSGSGSGTDFTLTISSLQPEDFATYYCQQGWNYPFTFGQGTKVEIK | 7.42 |

## Task I'd like to know its pKd. The binder in question is GH2-102 IgG (antibody, V domains shown, source: HEK293-F, transient transfection, purified (Protein A, Superdex 200)) VH: EVQLVESGGGLVQPGGSLRLSCAASGFTINGGGIHWVRQAPGKGLEWVASIGPYGGYTSYADSVKGRFTISADTSKNTAYLQMNSLRAGDTAVYYCARFGHHYDGHMDYWGQGTLVTVSS VL: DIQMTQSPSSLSASVGDRVTITCRASQDVGSNVAWYQQKPGKAPKLLIYGAPYLYSGVPSRFSGSGSGTDFTLTISSLQPEDFATYYCQQYYNWPLTFGQGTKVEIK
## Result 7.55
